Tested on: 18GAAA-D1 (NAD+ riboswitch domain 1, WT) (RNA, riboswitch) GGCUUCAACAACCCCGUAGGUGGGGACGAAAGUCAGCGCACCUACUGGAGCC
Test: ITC
Details: 50 mM NaCl, 10 mM MgCl2; 50 mM HEPES pH 7.0, 25 °C (Figure S7 legend: 20 °C), apparent
measuredParameter: Kd (µM)
Only the number, expressed in µM, is required.

Some solved cases for reference:
{"columns": ["smilesCode", "measuredParameter", "result"],
 "data": [
  ["Nc1ncnc2c1ncn2[C@@H]1O[C@H](COP(=O)(O)OP(=O)(O)O)[C@@H](O)[C@H]1O", "Kd", 95.3],
  ["NC(=O)c1ccc[n+]([C@@H]2O[C@H](COP(=O)(O)OP(=O)(O)OC[C@H]3O[C@@H](n4cnc5c(N)ncnc54)[C@H](O)[C@@H]3O)[C@@H](O)[C@H]2O)c1", "Kd", 127],
  ["Nc1ncnc2c1ncn2[C@@H]1O[C@H](COP(=O)(O)OP(=O)(O)OP(=O)(O)O)[C@@H](O)[C@H]1O", "Kd", 90.2]
]}

Enquiry: Query: Kd; subject: NC(=O)C1=CN([C@@H]2O[C@H](COP(=O)(O)OP(=O)(O)OC[C@H]3O[C@@H](n4cnc5c(N)ncnc54)[C@H](O)[C@@H]3O)[C@@H](O)[C@H]2O)C=CC1
Return: 305

These measurements were taken from paper PMC7708056.
